# Experimental Protocol: Oral bioavailability and plasma kinetics in mice (serum concentration)
# Type: in vivo, Balb/c mice
# Measurement Parameters: female, Balb/c, mouse, serum, po, 30 mg/kg, 30 mg/kg oral, sample at 40 minutes, read-out: c in the serum 2nd analysis
Where a name gives a salt, the structure may show the parent alone.
Readout Kind: concentration at 40 min
# do not omit the unit; it follows the number

Compound	concentration at 40 min
N=C(N)Nc1ccc(CNC(=O)CNC(=O)C(CO)NS(=O)(=O)Cc2cccc(Cl)c2)cc1 (stereo not shown) [WX-C318, hydrochloride]	50 ng/mL

[Q] GET /values?readout=concentration at 40 min&item= N=C(N)Nc1ccc(CNC(=O)CNC(=O)[C@@H](CO)NS(=O)(=O)Cc2ccccc2)cc1 [WX-508, hydrochloride]
[A] 4500 ng/mL

[Q] What would you report for N=C(N)Nc1ccc(CNC(=O)CNC(=O)C(CO)NS(=O)(=O)Cc2ccc(Cl)cc2)cc1 (stereo not shown) [WX-C340, hydrochloride] ?
[A] 800 ng/mL

[Q] Another compound: N=C(N)Nc1ccc(CNC(=O)CNC(=O)C(CO)NS(=O)(=O)Cc2cccc([N+](=O)[O-])c2)cc1 (stereo not shown) [WX-C316, hydrochloride]
[A] 7100 ng/mL

====

Attribute: concentration at 20 min
# Experimental Protocol: Oral bioavailability and plasma kinetics in mice (serum concentration)
# Assay type: in vivo, Balb/c mice
# Measurement Parameters: female, Balb/c, mouse, serum, po, 300 mg/kg, 300 mg/kg oral, sample at 20 minutes, read-out: c in the serum 1st analysis
Counter-ions that a name gives are not always drawn.
// return numeric value only (unit: ng/mL, not printed)

// known answers, use as guide
Molecule	Units Text	concentration at 20 min
N=C(N)Nc1ccc(CNC(=O)CNC(=O)C(CO)NS(=O)(=O)Cc2cccc(Cl)c2)cc1 (centres unmarked) [WX-C318, hydrochloride]	ng/mL	100000
N=C(N)Nc1ccc(CNC(=O)CNC(=O)C(CO)NS(=O)(=O)Cc2cccc([N+](=O)[O-])c2)cc1 (centres unmarked) [WX-C316, hydrochloride]	ng/mL	6000
CCCCS(=O)(=O)NC(CO)C(=O)NCC(=O)NCc1ccc(NC(=N)N)cc1 (centres unmarked) [WX-C300, hydrochloride]	ng/mL	1500
CN(CC(=O)NCc1ccc(NC(=N)N)cc1)C(=O)C(CO)NS(=O)(=O)Cc1ccccc1 (centres unmarked)	ng/mL	2500
N=C(N)Nc1ccc(CNC(=O)CNC(=O)C(CO)NS(=O)(=O)Cc2ccc(Cl)cc2)cc1 (centres unmarked) [WX-C340, hydrochloride]	ng/mL	4500

[Q] Which concentration at 20 min value is on record for N=C(N)Nc1ccc(CNC(=O)CNC(=O)[C@@H](CO)NS(=O)(=O)Cc2ccccc2)cc1 [WX-508, hydrochloride] ?
[A] 3500

[Q] Same thing, different molecule: C[C@H](NC(=O)C(CO)NS(=O)(=O)Cc1ccccc1)C(=O)NCc1ccc(NC(=N)N)cc1 (some centres unmarked) [WX-532, hydrochloride]
[A] 5800

[Q] Same question, CC1(C)C2CCC1(CS(=O)(=O)NC(CO)C(=O)NCC(=O)NCc1ccc(NC(=N)N)cc1)C(=O)C2 (centres unmarked) [WX-C298, hydrochloride] this time
[A] 17000

====

# System: Caco-2 cell monolayers
# Experimental Protocol: Caco-assay: transport across Caco-2 cell monolayers
# Type: in vitro ADME, human
# Measurement Parameters: first series, first value
Structures can show the parent of a compound that is named as a salt.
Readout Kind: Caco-2 assay % basolateral

Compound	Caco-2 assay % basolateral
N=C(N)Nc1ccc(CNC(=O)CNC(=O)C(CO)NS(=O)(=O)Cc2cccc(Cl)c2)cc1 (stereo not drawn) [WX-C318, hydrochloride]	0.4%

Now turn to the next compound.
[Q] Query: Caco-2 assay % basolateral; subject: C[C@H](NC(=O)C(CO)NS(=O)(=O)Cc1ccccc1)C(=O)NCc1ccc(NC(=N)N)cc1 (stereo partly drawn) [WX-532, hydrochloride]
[A] 0/0/0%

====

Reported c in the serum 1st analysis values for the following compounds.
# Experimental Protocol: Oral bioavailability and plasma kinetics in mice (serum concentration)
# Format: in vivo, Balb/c mice
# Measurement Parameters: mouse, 10 mg/kg i.v., time of sample collection 10
Structures can show the parent of a compound that is named as a salt.
Quick reminder: number only, in µg/mL, skip the unit.

// below: answered compounds
Compound	Units Text	Experimental Result
C[C@H](NC(=O)C(CO)NS(=O)(=O)Cc1ccccc1)C(=O)NCc1ccc(NC(=N)N)cc1 (some centres unmarked) [WX-532, hydrochloride]	µg/mL	3.8
N=C(N)Nc1ccc(CNC(=O)CNC(=O)C(CO)NS(=O)(=O)Cc2cccc(Cl)c2)cc1 (centres unmarked) [WX-C318, hydrochloride]	µg/mL	4.3
N=C(N)Nc1ccc(CNC(=O)CNC(=O)[C@@H](CO)NS(=O)(=O)Cc2ccccc2)cc1 [WX-508, hydrochloride]	µg/mL	4.3
CC1(C)C2CCC1(CS(=O)(=O)NC(CO)C(=O)NCC(=O)NCc1ccc(NC(=N)N)cc1)C(=O)C2 (centres unmarked) [WX-C298, hydrochloride]	µg/mL	18.3
CCCCS(=O)(=O)NC(CO)C(=O)NCC(=O)NCc1ccc(NC(=N)N)cc1 (centres unmarked) [WX-C300, hydrochloride]	µg/mL	11.0

[Q] Consider the compound shown here: N=C(N)Nc1ccc(CNC(=O)CNC(=O)C(CO)NS(=O)(=O)Cc2ccc(Cl)cc2)cc1 (centres unmarked) [WX-C340, hydrochloride] What is its recorded c in the serum 1st analysis?
[A] 5.3

[Q] Try this compound too: CN(CC(=O)NCc1ccc(NC(=N)N)cc1)C(=O)C(CO)NS(=O)(=O)Cc1ccccc1 (centres unmarked) [WX-538]
[A] 5.5

[Q] And then N=C(N)Nc1ccc(CNC(=O)CNC(=O)C(CO)NS(=O)(=O)Cc2cccc([N+](=O)[O-])c2)cc1 (centres unmarked) [WX-C316, hydrochloride] , what is it?
[A] 12.4

====

The following compounds are shown together with reported Ki values.
# Assay System: FXa (Homo sapiens)
# Sequence (P00742 235-488 limits assumed): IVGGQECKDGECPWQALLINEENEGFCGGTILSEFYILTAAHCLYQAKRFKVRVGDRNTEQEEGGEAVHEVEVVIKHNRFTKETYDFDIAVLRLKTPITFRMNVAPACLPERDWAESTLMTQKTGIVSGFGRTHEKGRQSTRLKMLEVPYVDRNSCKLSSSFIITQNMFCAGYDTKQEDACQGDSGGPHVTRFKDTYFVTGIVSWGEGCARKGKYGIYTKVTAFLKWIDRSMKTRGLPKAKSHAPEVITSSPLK
# Sequence (P00742 41-179 partner limits assumed): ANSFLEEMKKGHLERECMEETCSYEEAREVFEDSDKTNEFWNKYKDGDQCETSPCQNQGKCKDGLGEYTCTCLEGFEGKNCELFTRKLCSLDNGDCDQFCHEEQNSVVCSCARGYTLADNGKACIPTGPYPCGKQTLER
# Experimental Protocol: In vitro inhibition of FXa (Ki according to Dixon)
# Type: biochemical
Structures can show the parent of a compound that is named as a salt.
Could you give me the number in µM? Just the number is fine.

Compound	Assay System	Ki (µM)
N=C(N)Nc1ccc(CNC(=O)CNC(=O)C(CO)NS(=O)(=O)Cc2cccc(Cl)c2)cc1 (stereo not drawn) [WX-C318, hydrochloride]	FXa (Homo sapiens)	36
N=C(N)Nc1ccc(CNC(=O)CNC(=O)C(CO)NS(=O)(=O)Cc2cccc([N+](=O)[O-])c2)cc1 (stereo not drawn) [WX-C316, hydrochloride]	FXa (Homo sapiens)	32.4

[Q] Suppose we examine the compound N=C(N)Nc1ccc(CNC(=O)CNC(=O)C(CO)NS(=O)(=O)Cc2ccc(Cl)cc2)cc1 (stereo not drawn) [WX-C340, hydrochloride] ; what Ki value has been reported?
[A] 34

====

# Assay System: urokinase (Homo sapiens, UniProt P00749)
Where a name gives a salt, the structure may show the parent alone.
Readout Kind: Ki (nM)
Please give a number only; it is taken to be in nM.

[Q] So what's the measured Ki for this one? N=C(N)Nc1ccc(CNC(=O)CNC(=O)[C@@H](CO)NS(=O)(=O)Cc2ccccc2)cc1 [WX-508, hydrochloride]
[A] 40

====

concentration at 40 min: recorded values
# Experimental Protocol: Oral bioavailability and plasma kinetics in mice (serum concentration)
# Type: in vivo, Balb/c mice
# Measurement Parameters: female, Balb/c, mouse, serum, po, 300 mg/kg, 300 mg/kg oral, sample at 40 minutes, read-out: c in the serum 1st analysis
Structures can show the parent of a compound that is named as a salt.

Compound	Experimental Result
C[C@H](NC(=O)C(CO)NS(=O)(=O)Cc1ccccc1)C(=O)NCc1ccc(NC(=N)N)cc1 (some centres unmarked) [WX-532, hydrochloride]	2900 ng/mL

Next compound, concentration at 40 min to be filled in.
[Q] Item CCCCS(=O)(=O)NC(CO)C(=O)NCC(=O)NCc1ccc(NC(=N)N)cc1 (centres unmarked) [WX-C300, hydrochloride] has what recorded concentration at 40 min?
[A] 4600 ng/mL

====

Below: a set of entries, each annotated with reported concentration at 60 min.
# Experimental Protocol: Oral bioavailability and plasma kinetics in mice (serum concentration)
# Assay type: in vivo, Balb/c mice
# Measurement Parameters: female, Balb/c, mouse, serum, po, 300 mg/kg, 300 mg/kg oral, sample at 60 minutes, read-out: c in the serum 2nd analysis
Counter-ions that a name gives are not always drawn.
# unit: ng/mL | format: bare number

Compound	Units Text	concentration at 60 min
N=C(N)Nc1ccc(CNC(=O)CNC(=O)[C@@H](CO)NS(=O)(=O)Cc2ccccc2)cc1 [WX-508, hydrochloride]	ng/mL	5800
N=C(N)Nc1ccc(CNC(=O)CNC(=O)C(CO)NS(=O)(=O)Cc2cccc(Cl)c2)cc1 (stereo not shown) [WX-C318, hydrochloride]	ng/mL	7700
N=C(N)Nc1ccc(CNC(=O)CNC(=O)C(CO)NS(=O)(=O)Cc2cccc([N+](=O)[O-])c2)cc1 (stereo not shown) [WX-C316, hydrochloride]	ng/mL	5800

Next, consider the following compound.
[Q] Please look up its concentration at 60 min: C[C@H](NC(=O)C(CO)NS(=O)(=O)Cc1ccccc1)C(=O)NCc1ccc(NC(=N)N)cc1 (stereo partly shown) [WX-532, hydrochloride]
[A] 15000

Where do these numbers come from? They come from patent US20040266766A1.
